Entry source: patent US20100286082A1

target.or.system: 17-90 RNA
assay.explanation: In-line probing of 17-90 RNA (preQ1-II aptamer)
particulars: read-out: apparent KD
pKd: −log10 of the molar value.
Reported pKd values for the following compounds.
result.type: pKd

compound="N#CC1C=Nc2nc(N)[nH]c(=O)c21 (centres unmarked)" result_type=pKd recorded_measurement=~6.30
compound=CN(C)Cc1c[nH]c2nc(N)[nH]c(=O)c12 result_type=pKd recorded_measurement=~6.30

---

target.or.system: 68 metH RNA
assay.explanation: In-line probing of 68 metH RNA (SAH aptamer)
Format: binding, Dechloromonas aromatica
particulars: in-line probing; read-out: apparent dissociation constant KD
Procedure: iii. In-Line Probing Analysis In-line probing assays were carried out essentially as previously described (Soukup and Breaker, 1999). […] Spontaneous cleavage products were separated by denaturing 10% PAGE, visualized using a Phosphorlmager (Molecular Dynamics), and quantified using SAFA v1.1 software (Das et al., 2005). […]
pKd: −log10 of the molar value.
result.type: pKd

molecule="Nc1ncnc2c1ncn2[C@@H]1O[C@H](CSCC[C@H](N)C(=O)O)[C@@H](O)[C@H]1O [SAH, S-adenosylhomocysteine]" recorded_measurement=~7.70

---

target.or.system: 68 metH RNA
assay.explanation: Equilibrium dialysis of [3H]SAM with 68 metH RNA
Type: binding, Dechloromonas aromatica
particulars: equilibrium dialysis, 25 μM 68 metH RNA
Protocol: The chambers were separated by a permeable membrane with a molecular weight cut-off of 5000 Daltons. Equilibrium dialysis was performed by delivering 20 μl samples to each side of a Dispo-Equilibrium Biodialyzer (The Nest Group, Inc., Southboro, Mass., USA) wherein the separation between chambers is maintained by a dialysis membrane with a 5000 Dalton molecular weight cut-off. […]
pKd: −log10 of the molar value.
result.type: pKd

compound="C[S+](CC[C@H](N)C(=O)[O-])C[C@H]1O[C@@H](n2cnc3c(N)ncnc32)[C@H](O)[C@@H]1O (stereo partly shown)" result_type=pKd recorded_measurement="≤ 4.60"

---

target.or.system: 110 Vc2 RNA (Vc2 aptamer, GEMM RNA)
assay.explanation: In-line probing of 110 Vc2 RNA (cyclic di-GMP aptamer)
particulars: in-line probing with various cyclic di-GMP concentrations; read-out: apparent dissociation constant (KD)
pKd: −log10 of the molar value.
result.type: pKd

compound="Nc1nc2c(ncn2[C@@H]2O[C@@H]3COP(=O)(O)O[C@H]4[C@@H](O)[C@H](n5cnc6c(=O)[nH]c(N)nc65)O[C@@H]4COP(=O)(O)O[C@H]3[C@H]2O)c(=O)[nH]1 [cyclic di-GMP]" recorded_measurement=~9.00
